biological target: human recombinant, purified wild type His-B-Raf protein kinase (Homo sapiens, UniProt P15056); construct: His; test: B-Raf In Vitro ELISA Assay; settings: phosphorylation of MEK1 (0.15 μM) by 2.5 nM B-Raf, 10 μM ATP, 1 hour preincubation at 25° C.
Sequence (P15056 whole entry): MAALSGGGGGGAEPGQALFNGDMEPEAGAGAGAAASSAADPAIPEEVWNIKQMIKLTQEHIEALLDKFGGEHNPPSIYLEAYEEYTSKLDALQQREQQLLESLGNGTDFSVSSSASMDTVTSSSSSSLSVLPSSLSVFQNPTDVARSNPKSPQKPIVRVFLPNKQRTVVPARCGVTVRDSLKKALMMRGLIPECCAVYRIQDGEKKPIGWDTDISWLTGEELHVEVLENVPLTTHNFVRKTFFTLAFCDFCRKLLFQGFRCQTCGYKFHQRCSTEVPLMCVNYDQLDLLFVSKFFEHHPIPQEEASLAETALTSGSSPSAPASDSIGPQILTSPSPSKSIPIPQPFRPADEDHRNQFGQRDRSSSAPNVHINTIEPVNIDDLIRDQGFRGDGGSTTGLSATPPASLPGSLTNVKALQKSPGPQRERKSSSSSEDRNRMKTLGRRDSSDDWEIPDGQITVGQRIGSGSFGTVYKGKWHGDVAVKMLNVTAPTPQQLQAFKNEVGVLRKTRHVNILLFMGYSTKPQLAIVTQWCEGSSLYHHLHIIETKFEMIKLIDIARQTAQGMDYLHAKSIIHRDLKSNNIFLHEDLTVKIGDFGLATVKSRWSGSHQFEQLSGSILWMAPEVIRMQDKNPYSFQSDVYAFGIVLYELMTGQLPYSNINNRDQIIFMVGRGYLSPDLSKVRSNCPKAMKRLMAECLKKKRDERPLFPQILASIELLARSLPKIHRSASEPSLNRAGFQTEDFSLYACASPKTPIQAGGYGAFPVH
readout.name: IC50 (nM)
Use nM as the unit, but write only the number.

Query string: Please look up its IC50: Cc1cc(C(=O)Nc2cc(NC(=O)c3cccc(C(F)(F)F)c3)ccc2C)nc(N2CCN(C)CC2)n1 [Example 49]
Result string: 800

Query string: Query Cc1cc(C(=O)Nc2cc(NC(=O)c3cccc(C(C)(C)C#N)c3)ccc2C)nc(N2CCOCC2)n1 [Example 7] next
Result string: 600

Continuing:
Query string: Please look up its IC50: Cc1cc(C(=O)Nc2cc(NC(=O)c3cccc(C(C)(C)C#N)c3)ccc2C)nc(N2CCCCC2)n1 [Example 1]
Result string: 5700
